assaySystem: T1, RAD52 full length (human, UniProt P43351 1-418)
T1 sequence: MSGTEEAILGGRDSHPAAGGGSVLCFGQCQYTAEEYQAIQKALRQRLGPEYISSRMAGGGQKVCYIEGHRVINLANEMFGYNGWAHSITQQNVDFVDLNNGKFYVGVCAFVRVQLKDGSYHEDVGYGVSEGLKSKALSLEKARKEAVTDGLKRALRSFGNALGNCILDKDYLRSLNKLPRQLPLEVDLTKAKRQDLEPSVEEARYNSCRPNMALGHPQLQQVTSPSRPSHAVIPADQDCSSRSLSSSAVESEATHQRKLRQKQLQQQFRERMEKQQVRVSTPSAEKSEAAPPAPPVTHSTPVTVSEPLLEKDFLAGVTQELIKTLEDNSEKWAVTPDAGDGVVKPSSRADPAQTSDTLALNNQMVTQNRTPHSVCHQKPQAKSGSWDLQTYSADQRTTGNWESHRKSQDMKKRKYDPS
assayText: EMSA; 37 C; Hill 2.7 ± 0.2; EMSA: 25 mM Tris-acetate, 2 mM Mg(OAc)2, 1 mM DTT, pH 7.5, 10 nM ssDNA, 25 C 10 min or 37 C 5 min; mass photometry: 20 mM Tris-HCl, 50 mM NaCl, pH 7.5
testParameters: protein: recombinant; tags: His-tag (pET-15b)
measurementKind: Kd (nM)
Give just the numeric value; nM need not be written.

Query (binder): GCTCTAAGCCATCCGCAAAAATGACCTCTTAT (ssDNA) [32 nt] ; field requested: Kd 135
